protocol: in vitro
testParameters: human, plasma
measuredMetric: half-life at 10 µM

Here is how some compounds turned out for half-life at 10 µM.
O=P(O)(O)CP(=O)(O)OC[C@H]1O[C@@H](n2ccc3c(-c4ccoc4)ncnc32)[C@H](O)[C@@H]1O
> 2 h
O=P(O)(O)CP(=O)(O)OC[C@H]1O[C@@H](n2ccc3c(-c4cccc5ccncc45)ncnc32)[C@H](O)[C@@H]1O
> 2 h
O=P(O)(O)CP(=O)(O)OC[C@H]1O[C@@H](n2ccc3c(-c4ccc5cc(Cl)ccc5c4)nc(Cl)nc32)[C@H](O)[C@@H]1O
> 2 h

Okay, next one:
State the recorded half-life at 10 µM for this entry: O=P(O)(O)CP(=O)(O)OC[C@H]1O[C@@H](n2ccc3c(-c4ccco4)ncnc32)[C@H](O)[C@@H]1O
> 2 h

---

protocol: In vivo pharmacokinetic study, intravenous
Set-up: species or system male CD-1 mice
testParameters: male, CD-1, mouse, plasma, iv, 1 mg/kg, footnote: t1/2 stability in plasma; text: half-life in mouse PK, intravenous
Catalogue of compounds with associated half-life
Numeric only. Scale: h

O=P(O)(O)CP(=O)(O)OC[C@H]1O[C@@H](n2ccc3c(-c4ccnc5ccccc45)ncnc32)[C@H](O)[C@@H]1O
2.15

Fill in the blank: the reported half-life of Nc1nc(-c2cccc3ccccc23)c2ccn([C@@H]3O[C@H](COP(=O)(O)CP(=O)(O)O)[C@@H](O)[C@H]3O)c2n1 [11C.6] is ____.
2.78

What would you report for O=P(O)(O)CP(=O)(O)OC[C@H]1O[C@@H](n2ccc3c(-c4ccsc4)ncnc32)[C@H](O)[C@@H]1O ?
0.0833

# repeat for O=P(O)(O)CP(=O)(O)OC[C@H]1O[C@@H](n2ccc3c(-c4cccc5c4CCCC5)nc(F)nc32)[C@H](O)[C@@H]1O [14D.12]
2.25

Same read-out for O=P(O)(O)CP(=O)(O)OC[C@H]1O[C@@H](n2ccc3c(-c4cccc5c4oc4ccccc45)ncnc32)[C@H](O)[C@@H]1O ?
2.38

Continue with O=P(O)(O)CP(=O)(O)OC[C@H]1O[C@@H](n2ccc3c(-c4cc5ccccc5o4)nc(Cl)nc32)[C@H](O)[C@@H]1O
0.142

// same read-out, input: O=P(O)(O)CP(=O)(O)OC[C@H]1O[C@@H](n2ccc3c(-c4cccc5ccccc45)ncnc32)[C@H](O)[C@@H]1O
2.83

---

protocol: Microsomal stability assay, mouse liver microsomes
Type: in vitro ADME
testParameters: 10 μM
The compounds listed here are annotated with their Mics (m) comp remaining 60 min.
// unit must come after the numeric part

Example compounds with recorded Mics (m) comp remaining 60 min:
COC(=O)c1ccc2cc(-c3nc(Cl)nc4c3ccn4[C@@H]3O[C@H](COP(=O)(O)CP(=O)(O)O)[C@@H](O)[C@H]3O)ccc2c1
112%
O=P(O)(O)CP(=O)(O)OC[C@H]1O[C@@H](n2ccc3c(-c4ccc5cnccc5c4)ncnc32)[C@H](O)[C@@H]1O
79%

Mics (m) comp remaining 60 min lookup needed for O=P(O)(O)CP(=O)(O)OC[C@H]1O[C@@H](n2ccc3c(-c4ccncc4)ncnc32)[C@H](O)[C@@H]1O , thanks.
80%

Try this compound next: O=P(O)(O)CP(=O)(O)OC[C@H]1O[C@@H](n2ccc3c(-c4ccc(F)c5ccccc45)nc(Cl)nc32)[C@H](O)[C@@H]1O
101%
